Numbers sourced from paper PMC13083723.

Test system: Vero-E6
protocol text: primary screen, phospholipidosis by LipidTOX staining; higher = more effect of the substance
condition details: 10 µM
Screen size: about 5,400 compounds; about 190 (3.5%) showed an effect of 50% or more. The entries come from a sample that favours strong results as a whole.

smiles repr	result_ITMP, %
COc1cc2ncnc(Nc3ccc(F)c(Cl)c3)c2cc1NC(=O)/C=C/CN1CCCCC1	19.4
CN(C)C/C=C/C(=O)Nc1cc2c(Nc3ccc(F)c(Cl)c3)ncnc2cc1O[C@H]1CCOC1	108
O=C(N[C@H]1CN2CCC1CC2)c1ccc(Cl)cc1	-0.98

* * *

Test system: Vero-E6
protocol text: primary screen, phospholipidosis by LipidTOX staining; higher = more effect of the substance
condition details: 10 µM
Screen size: about 5,400 compounds; about 190 (3.5%) showed an effect of 50% or more. What follows is part of a selection rich in strong results, with near analogues and random picks from the rest.

compound	experimental system	result_ITMP [%]
O=C(O[C@H]1CN2CCC1CC2)N(Cc1cc(F)c(F)c(F)c1)c1cccc(F)c1	Vero-E6	71.4
C[C@]12CCC(=O)C=C1CC[C@@H]1[C@@H]2CC[C@@]2(C)[C@H]1CC[C@]2(O)C(=O)CO	Vero-E6	-5.73
C=CC(=O)N1CCCC(n2nc(-c3ccc(Oc4ccccc4)cc3)c3c(N)ncnc32)C1 (stereo not drawn)	Vero-E6	-4.8

* * *

Tested on: Vero-E6
protocol text: primary screen, phospholipidosis by LipidTOX staining; higher = more effect of the substance
condition details: 10 µM
Hit rate of the full screen: of about 5,400 compounds, about 190 (3.5%) showed an effect of 50% or more. For the sample, strong results were picked, then their nearest neighbours and some compounds at random.
parameter: result_ITMP (%)

smiles repr	experimental system	endpoint unit	obs value
O=C(O)c1ccccc1C(=O)Nc1ccc(-c2ccccc2)cc1	Vero-E6	%	-1.06
Nc1ncnc2c1nc(Br)n2[C@@H]1O[C@@H]2COP(=O)([O-])O[C@H]2[C@H]1O	Vero-E6	%	15.8
Cn1cc(C(=O)C(=O)N[C@H]2CN3CCC2CC3)c2ccccc21	Vero-E6	%	4.71
CCCC(CCC)C(=O)NCC(N)=O	Vero-E6	%	-5.65
COc1cccc(CN2C[Si](C)(C)O[Si](C)(C)C2)c1	Vero-E6	%	-1.81
CCN(CC)CC1CCN(c2ncc3ncnc(Nc4ccc(F)c(Cl)c4)c3n2)CC1	Vero-E6	%	97
COc1ccc(CCN(C)CCCOc2ccc(S(=O)(=O)c3c(C(C)C)c4ccccc4n3C)cc2)cc1OC	Vero-E6	%	84.7
CC1(C)S[C@@H]2[C@H](NC(=O)COc3ccccc3)C(=O)N2[C@H]1C(=O)[O-]	Vero-E6	%	-2.47
COc1ccc2cc1Oc1ccc(cc1)C[C@H]1c3c(cc4c(c3Oc3cc5c(cc3OC)CCN(C)[C@@H]5C2)OCO4)CCN1C	Vero-E6	%	57
O=c1c(-c2ccc(O)cc2)coc2c(O[C@@H]3O[C@H](CO)[C@@H](O)[C@H](O)[C@H]3O)c(O)ccc12	Vero-E6	%	-5.15
Cc1ccc(NC(=O)c2cccc(N(C)C)c2)cc1NC(=O)c1ccc(O)cc1	Vero-E6	%	-6.05
CC[C@H](/C=C/[C@@H](C)[C@H]1CC[C@H]2[C@@H]3CC=C4C[C@@H](O)CC[C@]4(C)[C@H]3CC[C@]12C)C(C)C	Vero-E6	%	-2.7
CN1CCC(=C2c3ccccc3CC(=O)c3sccc32)CC1	Vero-E6	%	29

* * *

Listing of recorded result_ITMP by entry.
Test system: Vero-E6
protocol text: primary screen, phospholipidosis by LipidTOX staining; higher = more effect of the substance
condition details: 10 µM
Text: To measure drug-induced PLD in Vero-E6 cells, we used the HCS LipidTOX Red Phospholipidosis Detection Reagent (Invitrogen, #H34351), which is non-toxic to cell growth and remains well retained after aldehyde fixation. […]
Hit rate of the full screen: of about 5,400 compounds, about 190 (3.5%) showed an effect of 50% or more. For the sample, strong results were picked, then their nearest neighbours and some compounds at random. Residues, ends and D or L forms follow the SMILES beside them. *: point of attachment. NHCH2CH2OH = OCCN*; For = O=C*

compound	result_ITMP (%)
CN(C)CCCN1c2ccccc2Sc2ccc(Cl)cc21	104
NC[C@@H]1O[C@H](O[C@H]2[C@@H](O)[C@H](O[C@@H]3[C@@H](O)[C@H](N)C[C@H](N)[C@H]3O[C@H]3O[C@H](CO)[C@@H](O)[C@H](O)[C@H]3N)O[C@@H]2CO)[C@H](N)[C@@H](O)[C@@H]1O	-1.27
COC1C(OC(=O)NC(=O)CCl)CCC2(CO2)C1C1(C)OC1CC=C(C)C (centres unmarked)	11.3
O=C(O)[C@@H](S)[C@@H](S)C(=O)O	-5.93
N=C(N)SCCc1ccc(OCc2ccc([N+](=O)[O-])cc2)cc1	70
CCCC[N+]1(C)[C@@H]2C[C@@H](OC(=O)[C@H](CO)c3ccccc3)C[C@H]1[C@@H]1O[C@@H]12 (some centres unmarked)	-5.86
CC(C)CC(NC(=O)C(C)NC(=O)CNC(=O)C(NC=O)C(C)C)C(=O)NC(C)C(=O)NC(C(=O)NC(C(=O)NC(C(=O)NC(Cc1c[nH]c2ccccc12)C(=O)NC(CC(C)C)C(=O)NC(Cc1c[nH]c2ccccc12)C(=O)NC(CC(C)C)C(=O)NC(Cc1c[nH]c2ccccc12)C(=O)NC(CC(C)C)C(=O)NC(Cc1c[nH]c2ccccc12)C(=O)NCCO)C(C)C)C(C)C)C(C)C (centres unmarked) (For-VGALAVVVWLWLWLW-NHCH2CH2OH; configuration not given here)	-8.15
O=C1[N-]C(=O)C(c2ccccc2)(c2ccccc2)N1	-1.89
OCCN1CCN(CC/C=C2/c3ccccc3Sc3ccc(Cl)cc32)CC1	17.9
Cc1ccc2c(c1)c1c3n2CCNC3CCC1 (centres unmarked)	51.5
C[C@]12CCC(=O)C=C1CC[C@@H]1[C@@H]2C(=O)C[C@]2(C)C(=O)CC[C@@H]12	-0.84

* * *

Test system: Vero-E6
protocol text: primary screen, phospholipidosis by LipidTOX staining; higher = more effect of the substance
condition details: 10 µM
Hit rate of the full screen: of about 5,400 compounds, about 190 (3.5%) showed an effect of 50% or more. What follows is part of a selection rich in strong results, with near analogues and random picks from the rest.
Listing of recorded result_ITMP by entry.

smiles repr	experimental system	result_ITMP, %
CN(C)CCC=C1c2ccccc2C=Cc2ccccc21	Vero-E6	71.1
C[C@]12CC[C@H](O)CC1=CC[C@@H]1[C@@H]2CC[C@]2(C)C(c3cccnc3)=CC[C@@H]12	Vero-E6	-5.26
CN(C)CCC=C1c2ccccc2CCc2ccccc21	Vero-E6	39.7

* * *

Listing of recorded result_ITMP by entry.
Tested on: Vero-E6
protocol text: primary screen, phospholipidosis by LipidTOX staining; higher = more effect of the substance
condition details: 10 µM
The campaign covered roughly 5,400 compounds. About 190 (3.5%) showed an effect of 50% or more. This is one part of a sample in which strong results are shown more often than they occur.

smiles repr	result_ITMP, %
Cc1cc(-c2ccccc2)nnc1NCCN1CCOCC1	-1.84
CCn1c2ccccc2c2cc(Nc3ccnc(NCCCN4CCOCC4)n3)ccc21	57.6
CCn1c(=O)[nH]c2ccccc21	-2.45
CCn1c2ccccc2c2cc(CNC)ccc21	73.3

* * *

Listing of recorded result_ITMP by entry.
Tested on: Vero-E6
protocol text: primary screen, phospholipidosis by LipidTOX staining; higher = more effect of the substance
condition details: 10 µM
Among all 5,400 compounds or so, about 190 (3.5%) showed an effect of 50% or more. For the sample, strong results were picked, then their nearest neighbours and some compounds at random.
parameter: result_ITMP (%)

molecule	obs value
CC(C)NC[C@@H](O)COc1cccc2ccccc12 [R4A_0000150_002 / SPE_K13994703]	20.2
O=C([O-])Cc1ccccc1Nc1c(Cl)cccc1Cl	-2.2
CN(C)[C@@H](CCOc1cccc2ccccc12)c1ccccc1	43.4
OCc1ccc(-c2nn(Cc3ccccc3)c3ccccc23)o1	-1.24
CC(C)(C)CCN1C[C@@H]2[C@@H](CNC(=O)c3cc(Cl)cc(Cl)c3)[C@@H]2C1	20.6
CN(C)CCCOc1nn(Cc2ccccc2)c2ccccc12	51.2

* * *

Tested on: Vero-E6
protocol text: primary screen, phospholipidosis by LipidTOX staining; higher = more effect of the substance
condition details: 10 µM
Screen size: about 5,400 compounds; about 190 (3.5%) showed an effect of 50% or more. Many of the other results were omitted from the sample, so strong results are more common in it than they were.
Listing of recorded result_ITMP by entry.

compound	experimental system	result_ITMP [%]
COc1ccc2cccc(N3CCN(CCNC(=O)c4ccc(F)cc4)CC3)c2c1	Vero-E6	14
CN[C@@H]1Cc2cccc3nc(O)n(c23)C1	Vero-E6	5.61
Cc1ccc(C(=O)C(C)CN2CCCCC2)cc1 (stereo not shown)	Vero-E6	-4.52
CCN1CCN(C(=O)NC(C(=O)N[C@@H]2C(=O)N3[C@@H]2SC(C)(C)[C@@H]3C(=O)[O-])c2ccccc2)C(=O)C1=O (stereo partly shown)	Vero-E6	-2.05
N[C@@]1(C(=O)O)CC[C@H](C(=O)O)C1.N[C@]1(C(=O)O)CC[C@@H](C(=O)O)C1	Vero-E6	-0.35
CC(=O)C1=C(O)[C@]2(C)C(=CC1=O)Oc1c(C(C)=O)c(O)c(C)c(O)c12	Vero-E6	-3.21
O=C(NCCN1CCOCC1)c1ccc(Cl)cc1	Vero-E6	-6.19
O=C([O-])C(Cl)Cl	Vero-E6	-4.51
Cc1c(-c2ccc(O)cc2)n(Cc2ccc(OCCN3CCCCCC3)cc2)c2ccc(O)cc12	Vero-E6	57.2
O=C(NCCN1CCC2(CC1)C(=O)NCN2c1cccc(F)c1)c1ccc2ccccc2c1	Vero-E6	55.1
CN1C2CC(O)[C@H]1C[C@@H](OC(=O)[C@H](CO)c1ccccc1)C2 (mixture of isomers)	Vero-E6	-3.11
O=C1NCN(c2ccccc2)C12CCN(CCCC(c1ccc(F)cc1)c1ccc(F)cc1)CC2	Vero-E6	1.98
O=C([O-])c1cc2cc(Cc3cccnc3)ccc2o1	Vero-E6	-0.95
O=C(NCCCN1CCCCCC1)C(c1ccccc1)C1CCCCC1 (stereo not shown)	Vero-E6	36.5
C[C@]12C=CC(=O)N[C@@H]1CC[C@@H]1[C@@H]2CC[C@]2(C)[C@@H](C(=O)Nc3cc(C(F)(F)F)ccc3C(F)(F)F)CC[C@@H]12	Vero-E6	-3.63
COc1cc(N2CCC(N3CCN(C)CC3)CC2)ccc1Nc1ncc(Cl)c(Nc2ccccc2S(=O)(=O)C(C)C)n1	Vero-E6	-2.93
COc1ccc(C(=O)/C(Br)=C/C(=O)[O-])cc1	Vero-E6	7.96
CN(C(=O)CN1C(=O)COc2cc(Cl)c(Cl)cc21)[C@@H](CN1CCCC1)c1ccc(-c2cccc(C(N)=O)c2)cc1	Vero-E6	41.8
NC(N)=NC(=O)c1cnn(-c2cccc3ncccc23)c1C1CC1	Vero-E6	-1.94
COc1ccccc1N1CCN(CCCCNC(=O)c2ccc3ccccc3c2)CC1	Vero-E6	34.4
O=C(NN1C(=O)[C@@H]2[C@@H]3C=C[C@@H]([C@H]4C[C@@H]34)[C@@H]2C1=O)c1ccc(C(F)(F)F)cc1	Vero-E6	-0.89
CN(C(=O)Cc1ccc(Cl)c(Cl)c1)[C@H](CN1CCCC1)c1ccccc1	Vero-E6	53.5
Cc1ccc(CC2(O)CCN(CCOc3ccc(O)cc3)CC2)cc1	Vero-E6	-3.85
CCCN1C[C@@H](NS(=O)(=O)N(CC)CC)C[C@@H]2Cc3c(O)cccc3C[C@H]21	Vero-E6	0.96
C[N+](C)(C)CCOP(=O)([O-])OP(=O)([O-])OC[C@H]1O[C@@H](n2ccc(N)nc2=O)[C@H](O)[C@@H]1O	Vero-E6	10.2
